assay: Protein binding in mouse plasma (dialysis); assay type: in vitro ADME; conditions: intended 500 nM, actual 496 nM, read-out: % Bound (converted)
OBSERVABLE: fraction unbound at 4 h, 500 nM

query_smiles=CO[C@@H]1[C@H](OC(=O)N2CC(CCN3CCOCC3)C2)CC[C@]2(CO2)[C@H]1[C@@]1(C)O[C@@H]1CC=C(C)C observed_result=0.377

====

Experiment: Toxicology study in the rat, s.c. Q3D for 28 days
Type: in vivo, Sprague Dawley rats
Conditions: male, Sprague Dawley, rat, in vivo, sc, 0.6 mg/kg, Day 31, male rats, NOAEL 0.6 mg/kg; read-out: AUC0-t at NOAEL
Description: Male and female Sprague Dawley rats 9-10 weeks of age (Envigo RMS, Inc., Indianapolis, Ind. or Orient Bio Inc., Gyeonggi-do, South Korea) were individually housed at the testing facility. […] Animals were allocated to treatment groups based on body weight, and body weight and food consumption were recorded weekly. […]
OBSERVABLE: AUC(0-t) (ng·h/mL)

molecule="CO[C@@H]1[C@H](OC(=O)/C=C/c2ccc(OCCN(C)C)cc2)CC[C@]2(CO2)[C@H]1[C@@]1(C)O[C@@H]1CC=C(C)C [beloranib, reference compound]" observed_result=29

====

experiment: Protein binding in rat plasma (dialysis); assay type: in vitro ADME; details: Rat Plasma, intended 50 nM, actual 39.7 nM; read-out: % Bound (converted)
OBSERVABLE: fraction unbound at 4 h, 50 nM

query_smiles=CO[C@@H]1[C@H](OC(=O)N2CC(CCN3CCOCC3)C2)CC[C@]2(CO2)[C@H]1[C@@]1(C)O[C@@H]1CC=C(C)C observable="fraction unbound at 4 h, 50 nM" observed_result=0.426

====

test system: plasma proteins; assay: Protein binding in rat plasma (dialysis); assay type: in vitro ADME; conditions: plasma; rat, summary over concentrations; read-out: bound to plasma proteins
OBSERVABLE: fraction unbound at 4 h

query_smiles=CO[C@@H]1[C@H](OC(=O)N2CC(CCN3CCOCC3)C2)CC[C@]2(CO2)[C@H]1[C@@]1(C)O[C@@H]1CC=C(C)C target_or_test_system="plasma proteins" observed_result="0.3 to 0.6"

====

assay: Protein binding in rat plasma (dialysis); type: in vitro ADME; conditions: Rat Plasma, intended 500 nM, actual 370 nM; read-out: % Bound (converted)
OBSERVABLE: fraction unbound at 4 h, 500 nM

query_smiles=CO[C@@H]1[C@H](OC(=O)N2CC(CCN3CCOCC3)C2)CC[C@]2(CO2)[C@H]1[C@@]1(C)O[C@@H]1CC=C(C)C observable="fraction unbound at 4 h, 500 nM" observed_result=0.451

====

test: Pharmacokinetics after subcutaneous administration in rabbits; format: in vivo, Rabbit; conditions: plasma; Rabbit, SC, 1 mg/kg
OBSERVABLE: half-life (h)

compound="CO[C@@H]1[C@H](OC(=O)/C=C/c2ccc(OCCN(C)C)cc2)CC[C@]2(CO2)[C@H]1[C@@]1(C)O[C@@H]1CC=C(C)C [beloranib, reference compound]" observable=half-life unit_abbreviation=h observed_result=1.7
compound=CO[C@@H]1[C@H](OC(=O)N2CC(CCN3CCOCC3)C2)CC[C@]2(CO2)[C@H]1[C@@]1(C)O[C@@H]1CC=C(C)C observable=half-life unit_abbreviation=h observed_result=0.615

====

test: Protein binding in mouse plasma (dialysis); type: in vitro ADME; conditions: 480 nM, read-out: % Bound (Mean) (converted)
OBSERVABLE: fraction unbound at 480 nM

compound="CO[C@@H]1[C@H](OC(=O)/C=C/c2ccc(OCCN(C)C)cc2)CC[C@]2(CO2)[C@H]1[C@@]1(C)O[C@@H]1CC=C(C)C [beloranib, reference compound]" observed_result=0.0222

====

experiment: Protein binding in mouse plasma (dialysis); assay type: in vitro ADME; conditions: intended 50 nM, actual 56.4 nM, read-out: % Bound (converted)
OBSERVABLE: fraction unbound at 4 h, 50 nM

query_smiles=CO[C@@H]1[C@H](OC(=O)N2CC(CCN3CCOCC3)C2)CC[C@]2(CO2)[C@H]1[C@@]1(C)O[C@@H]1CC=C(C)C observable="fraction unbound at 4 h, 50 nM" observed_result=0.302

====

assay: Toxicology study in the rat, s.c. Q3D for 28 days; assay type: in vivo, Sprague Dawley rats; settings: female, Sprague Dawley, rat, in vivo, sc, 2 mg/kg, Day 31, female rats, NOAEL 2 mg/kg; read-out: AUC0-t at NOAEL
OBSERVABLE: AUC(0-t) (ng·h/mL)

molecule="CO[C@@H]1[C@H](OC(=O)/C=C/c2ccc(OCCN(C)C)cc2)CC[C@]2(CO2)[C@H]1[C@@]1(C)O[C@@H]1CC=C(C)C [beloranib, reference compound]" observable=AUC(0-t) observed_result=56.7

====

assay: Protein binding in mouse plasma (dialysis); format: in vitro ADME; settings: 120 nM, read-out: % Bound (Mean) (converted)
OBSERVABLE: fraction unbound at 120 nM

compound="CO[C@@H]1[C@H](OC(=O)/C=C/c2ccc(OCCN(C)C)cc2)CC[C@]2(CO2)[C@H]1[C@@]1(C)O[C@@H]1CC=C(C)C [beloranib, reference compound]" observable="fraction unbound at 120 nM" observed_result=0.0191

====

assay: Pharmacokinetics after intravenous infusion in humans; type: in vivo; details: in vivo; Human, 30-minute IV Infusion, 2.0 mg (0.9 mg/m^2)
OBSERVABLE: half-life

compound="CO[C@@H]1[C@H](OC(=O)/C=C/c2ccc(OCCN(C)C)cc2)CC[C@]2(CO2)[C@H]1[C@@]1(C)O[C@@H]1CC=C(C)C [beloranib, reference compound]" observed_result="7.06 h"

====

test: Toxicology study in the rat, s.c. Q3D for 28 days; type: in vivo, Sprague Dawley rats; conditions: female, Sprague Dawley, rat, in vivo, sc, 2 mg/kg, Day 1, female rats, NOAEL 2 mg/kg; read-out: AUC0-t at NOAEL
OBSERVABLE: AUC(0-t) (ng·h/mL)

compound="CO[C@@H]1[C@H](OC(=O)/C=C/c2ccc(OCCN(C)C)cc2)CC[C@]2(CO2)[C@H]1[C@@]1(C)O[C@@H]1CC=C(C)C [beloranib, reference compound]" observable=AUC(0-t) unit_abbreviation=ng·h/mL observed_result=96.9

====

assay: Pharmacokinetics after subcutaneous administration in dogs; type: in vivo; conditions: plasma; Dog, SC, 1 mg/kg
OBSERVABLE: Cmax (ng/mL)

query_smiles=CO[C@@H]1[C@H](OC(=O)N2CC(CCN3CCOCC3)C2)CC[C@]2(CO2)[C@H]1[C@@]1(C)O[C@@H]1CC=C(C)C observable=Cmax observed_result=122

====

experiment: Protein binding in mouse plasma (dialysis); format: in vitro ADME; conditions: 240 nM, read-out: % Bound (Mean) (converted)
OBSERVABLE: fraction unbound at 240 nM

molecule="CO[C@@H]1[C@H](OC(=O)/C=C/c2ccc(OCCN(C)C)cc2)CC[C@]2(CO2)[C@H]1[C@@]1(C)O[C@@H]1CC=C(C)C [beloranib, reference compound]" observable="fraction unbound at 240 nM" observed_result=0.0259

====

experiment: Protein binding in rat plasma (dialysis); format: in vitro ADME; conditions: Rat Plasma, intended 10 nM, actual 7.60 nM; read-out: % Bound (converted)
OBSERVABLE: fraction unbound at 4 h, 10 nM

query_smiles=CO[C@@H]1[C@H](OC(=O)N2CC(CCN3CCOCC3)C2)CC[C@]2(CO2)[C@H]1[C@@]1(C)O[C@@H]1CC=C(C)C observable="fraction unbound at 4 h, 10 nM" observed_result=0.29

====

assay: Pharmacokinetics after intravenous administration in rats; settings: in vivo; Rat, IV Bolus, 3 mg/kg; read-out: Vdss
OBSERVABLE: Vd (L/kg)

molecule="CO[C@@H]1[C@H](OC(=O)/C=C/c2ccc(OCCN(C)C)cc2)CC[C@]2(CO2)[C@H]1[C@@]1(C)O[C@@H]1CC=C(C)C [beloranib, reference compound]" unit_abbreviation=L/kg observed_result=5.08

====

assay: Protein binding in rat plasma (dialysis); format: in vitro ADME; conditions: Rat Plasma, intended 1000 nM, actual 595 nM; read-out: % Bound (converted)
OBSERVABLE: fraction unbound at 4 h, 1000 nM

query_smiles=CO[C@@H]1[C@H](OC(=O)N2CC(CCN3CCOCC3)C2)CC[C@]2(CO2)[C@H]1[C@@]1(C)O[C@@H]1CC=C(C)C observed_result=0.566

====

Experiment: Toxicology study in the rat, s.c. Q3D for 28 days
Format: in vivo, Sprague Dawley rats
Settings: male, Sprague Dawley, rat, in vivo, sc, 0.6 mg/kg, Day 1, male rats, NOAEL 0.6 mg/kg; read-out: AUC0-t at NOAEL
Protocol: Male and female Sprague Dawley rats 9-10 weeks of age (Envigo RMS, Inc., Indianapolis, Ind. or Orient Bio Inc., Gyeonggi-do, South Korea) were individually housed at the testing facility. […] Animals were allocated to treatment groups based on body weight, and body weight and food consumption were recorded weekly. […]
OBSERVABLE: AUC(0-t) (ng·h/mL)

compound="CO[C@@H]1[C@H](OC(=O)/C=C/c2ccc(OCCN(C)C)cc2)CC[C@]2(CO2)[C@H]1[C@@]1(C)O[C@@H]1CC=C(C)C [beloranib, reference compound]" observable=AUC(0-t) observed_result=36.8
